assay: ATG_EGR_CIS: Attagene CIS-FACTORIAL HepG2 Assay for human Early Growth Response 1 (EGR1) (AID 2282938); settings: HepG2 Attagene CIS-FACTORIAL EGR reporter mRNA; actives raise or lower the signal
Activity calls are given as the source filed them. How the source made its calls: active means hit-call score of the fitted dose curve at least 0.9, where 1 is the maximum; inactive means score below 0.9.
propertyName: AC50

Below, each entry is followed by its recorded AC50 result.
C=C(Cl)Cl :: inactive
c1ccc(P(c2ccccc2)c2ccccc2)cc1 :: inactive
Nc1ccccc1 :: inactive
C[C@]12CC[C@H]3[C@@H](CC[C@@]45O[C@@H]4C(O)=C(C#N)C[C@]35C)[C@@H]1CC[C@@H]2O :: 63.3 µM (active)
CC(C)CCCCCCCOC(=O)c1ccccc1C(=O)OCCCCCCCC(C)C :: inactive
CC1CCC(=O)O1 (stereo not given) :: inactive

stdin: Report AC50, nothing else, for this molecule: CCC(C)c1cc([N+](=O)[O-])cc([N+](=O)[O-])c1OC(=O)C=C(C)C (stereo not given)
stdout: 27.7 µM (active)

stdin: Tell us which AC50 value is on record for CC(Cc1ccc(C(C)(C)C)cc1)CN1C[C@@H](C)O[C@@H](C)C1 (stereo not given in full)
stdout: inactive

stdin: Fill in reported AC50 for this entry: O=[N+]([O-])O
stdout: inactive

stdin: State, in one line, measured AC50 of [Cl][Sb]([Cl])[Cl]
stdout: 140 µM (active)

stdin: Specify reported AC50 for the molecule shown: CC(C)(O)C#N
stdout: inactive

stdin: Please indicate AC50 recorded for SCc1ccco1
stdout: inactive

stdin: Tell us which AC50 value is on record for CC[N+](=O)[O-]
stdout: inactive
